# Target or test system: RAD51 WT (UniProt Q06609 Q06609:1-339)
# Sequence (Q06609 whole entry, one chain of several): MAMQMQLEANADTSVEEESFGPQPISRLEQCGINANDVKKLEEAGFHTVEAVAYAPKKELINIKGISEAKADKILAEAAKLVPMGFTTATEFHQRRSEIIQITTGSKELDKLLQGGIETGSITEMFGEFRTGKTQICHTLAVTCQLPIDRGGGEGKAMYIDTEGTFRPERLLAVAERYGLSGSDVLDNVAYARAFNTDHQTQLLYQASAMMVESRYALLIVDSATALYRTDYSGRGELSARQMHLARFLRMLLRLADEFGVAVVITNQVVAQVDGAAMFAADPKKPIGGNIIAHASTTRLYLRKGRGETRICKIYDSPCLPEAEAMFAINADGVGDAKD
# Experiment summary: MST; +/- 18.1 nM, Hill 2.66
# Measurement context: tags: pET11 construct, E. coli BLR(DE3)pLysS; label: Cy5
Value type: pEC50
Numbers only, as −log10 of the molar value.

Prompt: Need pEC50 of oligo P1 ssDNA (ssDNA) DNA: TTATATCCTTTACTTTGAATTCTATGTTTAACCTTTTACTTATTTTGTATTAGCCGGATCCTTATTTCAATTATGTTCAT , thanks.
Completion: 6.29
